Tested on: Hep3B cells
Experiment: MTT assay, Hep3B
Format: cell-based
Conditions: Homo sapiens, 48 h
measured-property: pIC50
Scale: negative log10 of molar concentration, which is what pIC50 denotes.

input: Kindly indicate its recorded pIC50. Item: `CC[C@@]1(O)C(=O)OCc2c1cc1n(c2=O)Cc2cc3c(CN(C)C)c(O)ccc3nc2-1`
output: 6.95

---

System: Huh7 cells
Assay: MTT assay, Huh7
Assay type: cell-based
Conditions: Homo sapiens, Huh 7, 24 h
measured-property: pIC50
Scale: negative log10 of molar concentration, which is what pIC50 denotes.

input: Kindly indicate its recorded pIC50. Item: CC[C@@]1(O)C(=O)OCc2c1cc1n(c2=O)Cc2cc3c(CN(C)C)c(O)ccc3nc2-1 [Topotecan]
output: 6.30
